Provenance of the data: patent US10874743B2

Assay: Pharmacokinetics in CD-1 mice (plasma concentrations, PK parameters)
Assay type: in vivo
Conditions: CD-1, mouse, plasma, iv, 2 mg/kg, mouse (CD1) iv 2 mg/kg; 2.00 h; Mean IV; read-out: concentrations
property.name: concentration at 2 h (ng/mL)
Write the value in ng/mL as a bare number.

Query (compound): NC(=O)c1nn(-c2ccc(C(=O)NCCOCCOCCNc3cccc4c3C(=O)N(C3CCC(=O)NC3=O)C4=O)cc2)cc1NC(=O)c1coc(-c2ccnc(NCC(F)(F)F)c2)n1 (stereo not shown) [I-127] ; field requested: concentration at 2 h
31.7

###

Assay: Pharmacokinetics in CD-1 mice (plasma concentrations, PK parameters)
Type: in vivo
Settings: CD-1, mouse, plasma, sc, 30 mg/kg, mouse (CD1) sc 30 mg/kg; 4 h; Mean; read-out: Concentration
property.name: concentration at 4 h (ng/mL)
Write the value in ng/mL as a bare number.

INSERT INTO results (molecule, numeric_value) VALUES
  ('O=C1CCC(N2C(=O)c3cccc(NCCOCCOCCNCc4ccc(-n5cc(NC(=O)c6coc(-c7ccnc(NCC8CC8)c7)n6)c(C(F)F)n5)cc4)c3C2=O)C(=O)N1 (centres unmarked)', 98);

Attention now shifts to the item below.
Query (molecule): NC(=O)c1nn(-c2ccc(C(=O)NCCCCCNCCNc3cccc4c3C(=O)N(C3CCC(=O)NC3=O)C4=O)cc2)cc1NC(=O)c1coc(-c2ccnc(NCC(F)(F)F)c2)n1 (centres unmarked) ; field requested: concentration at 4 h
37.3
